pEC50: recorded values
biological target: G-protein coupled receptor 35 (Homo sapiens, UniProt Q9HC97); assay: Agonist activity at GPR35 receptor in human HT-29 cells after 10 mins by dynamic mass redistribution assay; format: functional, cell-based
Sequence (Q9HC97 whole entry): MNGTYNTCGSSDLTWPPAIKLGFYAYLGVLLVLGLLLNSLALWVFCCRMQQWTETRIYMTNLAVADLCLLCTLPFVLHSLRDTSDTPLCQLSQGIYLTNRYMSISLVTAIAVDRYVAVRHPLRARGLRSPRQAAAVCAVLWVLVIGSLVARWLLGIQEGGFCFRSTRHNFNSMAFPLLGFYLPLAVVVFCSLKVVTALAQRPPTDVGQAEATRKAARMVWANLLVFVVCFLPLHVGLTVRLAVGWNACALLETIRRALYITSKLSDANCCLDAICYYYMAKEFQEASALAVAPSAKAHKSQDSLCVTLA
pEC50: −log10 of the molar value.
property_measured: pEC50

> print(dat)
                                   compound                           target.of.assay  property.measured  recorded.result
1  O=c1c(O)c(-c2ccc(O)cc2O)oc2cc(O)cc(O)c12 [MORIN]  G-protein coupled receptor 35 (Homo sapiens, UniProt Q9HC97)              pEC50             5.88
2  O=C(O)c1cc(O)c(=O)c2c(O)c(O)ccc2c1 [7-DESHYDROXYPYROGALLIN-4-CARBOXYLIC ACID]  G-protein coupled receptor 35 (Homo sapiens, UniProt Q9HC97)              pEC50             7.27
3  CC(=O)NCCc1ccc(O)c(-c2c(O)c(O)c3c(c2O)C(=O)c2c(cc(O)c(C(=O)O)c2C(=O)O)C3=O)c1 [LACCACID ACID A]  G-protein coupled receptor 35 (Homo sapiens, UniProt Q9HC97)              pEC50             6.41

* * *

biological target: UniProtKB Q9HC97; assay: Agonist activity at GPR35 receptor in human U2OS cells coexpressing Gal4-VP16-TEV assessed as beta arrestin translocation after 5 hrs by beta lactamase reporter gene assay relative to control; format: functional, cell-based
Assign fulfilled whenever Ratio does not fall below 10; assign not fulfilled whenever it does.

> print(dat)
                                   molecule  category.label
1      O=c1cc(-c2ccccc2)oc2cc(O)c(O)c(O)c12   not fulfilled
2                 Cc1c(C(=O)O)sc2c(Br)csc12       fulfilled
3  CC(=O)NCCc1ccc(O)c(-c2c(O)c(O)c3c(c2O)C(=O)c2c(cc(O)c(C(=O)O)c2C(=O)O)C3=O)c1   not fulfilled
4  O=C(O)c1cc(O)c(=O)c2c(O)c(O)ccc2c1 [7-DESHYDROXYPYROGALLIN-4-CARBOXYLIC ACID]       fulfilled
5  CCCCCc1c2c(cc(O)c1C(=O)O)OC(=O)c1c(cc(OC)cc1C(=O)CCCC)O2   not fulfilled
6  O=c1oc2c(O)c(O)cc3c(=O)oc4c(O)c(O)cc1c4c23   not fulfilled
7          CC(C)=CCC1=C(O)C(=O)c2ccccc2C1=O   not fulfilled
8  O=C1C=C2CC3(O)COc4c(ccc(O)c4O)C3=C2C=C1O (centres undefined)   not fulfilled

* * *

EC50: recorded values
target: G-protein coupled receptor 35 (Homo sapiens, UniProt Q9HC97); assay: Agonist activity at GPR35 receptor in human HT-29 cells after 10 mins by dynamic mass redistribution assay; format: functional, cell-based
property_measured: EC50 (µM)

> print(dat)
                                   molecule  property.measured  recorded.result
1  N#C/C(=C\c1ccc(O)cc1)C(=O)O [alpha-CYANO-4-HYDROXYCINNAMIC ACID]               EC50              9.8
2  CC(C)=CCC1=C(O)C(=O)c2ccccc2C1=O [LAPACHOL]               EC50             2.84
3  O=c1cc(-c2ccc(O)c(O)c2)oc2cc(O)cc(O)c12 [LUTEOLIN]               EC50             7.24
4  O=C1C=C2CC3(O)COc4c(ccc(O)c4O)C3=C2C=C1O (centres undefined) [HEMATEIN]               EC50             11.1
5  O=c1oc2c(O)c(O)cc3c(=O)oc4c(O)c(O)cc1c4c23 [ELLAGIC ACID]               EC50             0.11
6  O=c1cc(-c2ccccc2)oc2cc(O)c(O)c(O)c12 [BAICALEIN]               EC50             10.3
7  O=c1c(O)c(-c2cc(O)c(O)c(O)c2)oc2cc(O)cc(O)c12 [MYRICETIN]               EC50             3.02
8  O=c1c(O)c(-c2ccc(O)c(O)c2)oc2cc(O)cc(O)c12 [QUERCETIN]               EC50             8.02
9  CCCCCc1c2c(cc(O)c1C(=O)O)OC(=O)c1c(cc(OC)cc1C(=O)CCCC)O2 [LOBARIC ACID]               EC50             2.39
